Test system: MCF-7 cells
Assay: Drug IC50 with and without polypeptide pretreatment (MTS cell viability assay)
Assay type: cell-based
Conditions: Homo sapiens, MCF7; no pretreatment, 72 h drug exposure; read-out: IC50 (mean ± SEM)
Measurement kind: IC50 (nM)
One number for each entry, in nM.

Answered examples (2):
| Molecule | Measure unit | Result |
| --- | --- | --- |
| COc1cccc2c1C(=O)c1c(O)c3c(c(O)c1C2=O)C[C@@](O)(C(=O)CO)C[C@@H]3O[C@H]1C[C@H](N)[C@H](O)[C@H](C)O1 | nM | 752 |
| COc1cc([C@@H]2c3cc4c(cc3[C@@H](O[C@@H]3O[C@@H]5CO[C@@H](C)O[C@H]5[C@H](O)[C@H]3O)[C@H]3COC(=O)[C@H]23)OCO4)cc(OC)c1O [Etoposide] | nM | 210000 |

// moving on: another record for IC50
Reported IC50, molecule CC[C@@]1(O)C(=O)OCc2c1cc1n(c2=O)Cc2cc3ccccc3nc2-1 : ____
235
